system: CAKI-1; experiment: NCI tumour cell line growth inhibition, 48 h
Activity calls are given as the source filed them. Cut-off read from the data, not from the text of the source: active = GI50 up to about 1.1 µM and inactive = higher.
Outcome (select one): active, inactive

Record excerpt, results attached:
Compound: COc1nc(NC2OC(COC(C)=O)C(OC(C)=O)C(OC(C)=O)C2OC(C)=O)c2c(OC(C)=O)c(C)c(=O)oc2n1 (stereo not drawn)
Label class: inactive
//
Compound: O=[N+]([O-])c1ccc(N/N=C/c2ccc(OCCCCCCCCCCCO)cc2)c([N+](=O)[O-])c1
Label class: inactive
//
Compound: Cc1cc(N2CCOCC2)nc2ccc(Cc3ccc4nc(N5CCOCC5)cc(C)c4c3)cc12
Label class: inactive
//
Compound: CC(=O)O[C@H]1C(=O)[C@]2(C)[C@@H](OC(=O)OCC(O)CO)C[C@H]3OC[C@@]3(OC(C)=O)[C@H]2[C@H](OC(=O)c2ccccc2)[C@]2(O)C[C@H](OC(=O)[C@H](O)[C@@H](NC(=O)c3ccccc3)c3ccccc3)C(C)=C1C2(C)C (stereo partly drawn) [PACLITAXEL CERIBATE]
Label class: active
//
Compound: C=C(C)[C@@H]1CCC2=C[C@H](CC(C)=CC3=CC(C)=C(O3)[C@@H]1OC)OC2=O
Label class: inactive
//
Compound: COc1ccc(C(=O)CC2=Nc3nnc(CCCCCCCc4nnc5n4C(=O)C(CC(=O)c4ccc(OC)cc4)=N5)n3C2=O)cc1
Label class: inactive
//
Compound: Cc1ccc(Nc2n[nH]c(NS(=O)(=O)c3cc(C(=O)Nc4ccc(Cl)cc4)c(Cl)cc3S)n2)cc1
Label class: inactive
//
Compound: CCN(CC)CCCn1c(=O)c2ccccc2n2c3c(=O)n(C)c(=O)n(C)c3nc12
Label class: inactive
//
Compound: O=c1[nH]nc(-c2ccc([N+](=O)[O-])cc2)[nH]1
Label class: inactive
//
Compound: O=C1N(CN2CCOCC2)CN(CN2CCOCC2)C(=O)N1Cc1ccc(-c2ccc(CN3C(=O)N(CN4CCOCC4)CN(CN4CCOCC4)C3=O)cc2)cc1
Label class: inactive

API: the following record is the query input.
Field: outcome | Entry: COc1cc(CNc2nc3ccccc3nc2C(=O)O)cc(OC)c1OC
inactive

====

tested on: SNB-78; assay: NCI tumour cell line growth inhibition, 48 h
Activity calls are given as the source filed them. Rule as the data show it: active = GI50 up to about 1.1 µM and inactive = higher.
Observed property: GI50

Solved cases below.
Compound: COC(=O)/C(C#N)=C1\NN=NN1c1ccc(OC)cc1
GI50: > 100 µM (inactive)

Compound: OCC(CO)C1c2cccc3ccc4cccc1c4c23
GI50: > 100 µM (inactive)

Compound: Cn1cc(NC(=O)c2cc(NC(=O)Nc3cc(C(=O)Nc4cc(C(=O)NCCC(=N)N)n(C)c4)n(C)c3)cn2C)cc1C(=O)NCCC(=N)N
GI50: 38.5 µM (inactive)

Compound: CC(C)CC12CC3CCC(CNC1=O)C32C (stereo not given)
GI50: > 100 µM (inactive)

Let's switch to this compound now.
# compound Cc1ccc(NC(=O)CC(=O)n2nc(-c3ccccc3)c(/N=N/c3ccccc3Cl)c2-c2ccccc2)cc1 ; its GI50 = > 10 µM (inactive)

====

system: MDA-MB-231; assay: NCI tumour cell line growth inhibition, 48 h
Activity calls are given as the source filed them. No stated cut-off is given here; in the data, active = GI50 up to about 1.1 µM and inactive = higher.
Outcome (select one): active, inactive

Compound: COc1cccc2c1C(=O)c1c(O)c3c(c(O)c1C2=O)C[C@@](O)(C(C)=O)CC3OC1CC(OC2CC(N)C(O)C(C)O2)C(O)C(C)O1 (some centres not stated)
Label class: inactive
//
Compound: O=[Se](O)O
Label class: active
//
Compound: CN(C)CCn1c(=O)nc2c3c(c([N+](=O)[O-])ccc31)Nc1ccc(O)cc1-2
Label class: inactive
//
Compound: Cn1c(-c2ccc(/N=N/Nc3ccc(-c4n[nH]c(=S)n4C)cc3)cc2)n[nH]c1=S
Label class: inactive
//
Compound: COc1cc2c(cc1OC)C(=O)N(c1ccc(OCCN3CCCC3)cc1)C2
Label class: inactive

Field: outcome | Entry: OCC(CCc1ccccc1I)C1=CCC2(CC1)OCCO2 (configuration not stated)
inactive

Field: outcome | Entry: CC1C(c2ccc3c(c2)OCO3)c2cc3c(cc2OC1N1CCOCC1)OCO3 (configuration not stated)
inactive

Field: outcome | Entry: COc1ccc(NC(=O)CC(=O)n2nc(C)c(/N=N/c3cccc(C)c3)c2C)cc1
inactive

Field: outcome | Entry: CN(C)CCNc1ccc2c(=O)n(CCN(C)C)c(=O)n3c4ccc(O)cc4c(=O)c1c23
active

Field: outcome | Entry: COc1ccc(CCNC(=O)[C@H]2CCCC[C@@H]2CCO)cc1OC
inactive

Field: outcome | Entry: COc1cc(OCc2ccc3nc(OC)c(OC)nc3c2)cc(OC)c1OC
inactive

====

system: TK-10; test: NCI tumour cell line growth inhibition, 48 h
Active and inactive are the calls of the source. Cut-off read from the data, not from the text of the source: active = GI50 up to about 1.1 µM and inactive = higher.
// reported GI50 for each item listed

Solved cases below.
Compound: CC(C)(C)/N=N/C(C)(C)N=C=O
GI50: > 100 µM (inactive)
--
Compound: N#Cc1c(-c2ccc(Cl)cc2Cl)nc2[nH]nc(S)n2c1=O
GI50: > 100 µM (inactive)
--
Compound: Nc1cccnc1NCC1(CO)CCCC1
GI50: > 100 µM (inactive)
--
Compound: O=c1[nH]c(=O)n(C2OC(CO)C(O)C2O)c2ncc(-c3ccc(-c4ccccc4)cc3)nc12 (stereo unspecified)
GI50: > 20 µM (inactive)
--
Compound: OCC(CO)C1c2cccc3ccc4cccc1c4c23
GI50: > 100 µM (inactive)

I looked up Cn1c(=O)c2nc(CCCCc3nc4c(=O)n(C)c(=S)n(C)c4[nH]3)[nH]c2n(C)c1=S and its GI50 for TK-10 was > 100 µM (inactive)

I looked up Cc1ccc(-c2cc(-c3ccco3)c(C#N)c(=O)n2C2OC(CO)C(O)C(O)C2O)cc1 (stereo unspecified) and its GI50 for TK-10 was 45.3 µM (inactive)

I looked up Nc1nc(NCCO)c(N=O)c(=O)[nH]1 and its GI50 for TK-10 was > 100 µM (inactive)

I looked up OCCN(C1=NCCN1)/[N+](=C/c1ccc(Cl)cc1)[CH-]c1ccc(Cl)cc1 and its GI50 for TK-10 was > 100 µM (inactive)

I looked up C[n+]1c2ccccc2n2c3ccccc3c(NCCc3ccccn3)c(C#N)c21 and its GI50 for TK-10 was 1.14 µM (inactive)

I looked up Cc1ccc(-c2cc(-c3ccco3)c(C#N)c(=S)[nH]2)cc1 and its GI50 for TK-10 was > 100 µM (inactive)

====

tested on: HT-29; experiment: NCI tumour cell line growth inhibition, 48 h
The source made the active and inactive calls. Rule as the data show it: active = GI50 up to about 1.1 µM and inactive = higher. Where a SMILES comes first, the peptide text is derived from it. [ ]: non-standard residue; d: D form. 2Nal = N[CH](Cc1ccc2ccccc2c1)C(=O)O
Observed property: GI50

Molecule: COc1cc(C(=O)O[C@@H]2[C@@H](OC(=O)c3cc(OC)c(OC)c(OC)c3)[C@@H](OC)O[C@@H]3CO[C@@H](c4ccccc4)O[C@@H]23)cc(OC)c1OC
Measured on: HT-29
GI50: > 100 µM (inactive)
--
Molecule: CC1CC(=O)C(C(O)CC2CC(=O)N(c3ccccc3)C(=O)C2)C(C)C1 (configuration not stated)
Measured on: HT-29
GI50: > 100 µM (inactive)
--
Molecule: NC(=O)c1csc(C2CCC(CO)O2)n1 (configuration not stated)
Measured on: HT-29
GI50: > 100 µM (inactive)
--
Molecule: Cc1ccc(-n2c(=S)[nH]c3ccc(Br)cc3c2=O)cc1
Measured on: HT-29
GI50: > 100 µM (inactive)
--
Molecule: OCCN=C1c2ccccc2C2C(c3ccccc31)C1c3ccccc3C(=NCCO)c3ccccc3C21 (configuration not stated)
Measured on: HT-29
GI50: 15.4 µM (inactive)
--
Molecule: CCOC(=O)C12CCCC1(O)N(NC(=O)c1ccccc1)C(C)=C2C(=O)OC (configuration not stated)
Measured on: HT-29
GI50: > 100 µM (inactive)
--
Molecule: CC(NC(=O)C(N)Cc1ccccc1)C(=O)NC(Cc1ccc(O)cc1)C(=O)NC(Cc1c[nH]c2ccccc12)C(=O)NC(CCCCN)C(=O)NC(C(=O)NC(C)C(=O)NC(Cc1ccc2ccccc2c1)C(N)=O)C(C)C (configuration not stated) (H-FAYWKVA[2Nal]-NH2; configuration not given here)
Measured on: HT-29
GI50: > 12.5 µM (inactive)
--
Molecule: Nc1nc(NCCO)c(N=O)c(=O)[nH]1
Measured on: HT-29
GI50: > 100 µM (inactive)
--
Molecule: COc1ccc(NC(=O)CC(=O)n2nc(C)c(/N=N/c3cccc(C)c3)c2C)cc1
Measured on: HT-29
GI50: > 100 µM (inactive)
--
Molecule: O=C1C2CC=CCC2C(=O)N1n1c(-c2ccccc2)n[nH]c1=O (configuration not stated)
Measured on: HT-29
GI50: > 100 µM (inactive)

# molecule CC(C)(C)[Si](C)(C)OCC1OC(n2cnc3c(N)ncnc32)C(O[Si](C)(C)C(C)(C)C)C1O[Si](C)(C)C(C)(C)C (configuration not stated) ; its GI50 = 9.75 µM (inactive)

# molecule C[C@@]12CCC3C1C=C1C(=O)c4cc(O)ccc4C(=O)[C@]1(O2)[C@@]3(C)C=O ; its GI50 = 4.67 µM (inactive)

# molecule Clc1nc(NCCc2ccccc2)c2ncn(-c3ccccc3)c2n1 ; its GI50 = 16.2 µM (inactive)

# molecule C[C@@H](NC(=O)c1ccc(CNC(=O)/C=C/c2cccc(Oc3ccccc3)c2)cc1)c1ccccc1 ; its GI50 = 22.6 µM (inactive)

# molecule CC1(C)CCC2(C(=O)OC3OC(CO)C(O)C(O)C3O)CCC3(C)C(=CCC4C5(C)CCC(OC6OC(CO)C(O)C(O)C6O)C(C)(C)C5CCC43C)C2C1 (configuration not stated) ; its GI50 = 9.46 µM (inactive)

# molecule CC[C@]12CCCN3CCc4c(n(c5ccccc45)C(=O)C1)[C@@H]32 ; its GI50 = 3.56 µM (inactive)

# molecule CC1(c2ccccc2)N=c2[nH]cnc2=C(C(N)=O)N1 (configuration not stated) ; its GI50 = > 100 µM (inactive)
